Cited source: patent US20220402862A1

protocol-notes: pKa measurement of unformulated amine lipid (fluorescence, method of Jayaraman et al.)
Assay type: physicochemical
details: 100 μM in 0.1 M phosphate buffer, pH 2.0-12.0
Protocol: The pKa of each amine lipid was determined according to the method in Jayaraman, et al. (Angewandte Chemie, 2012) with the following adaptations. […] Lipid was diluted to 100 μM in 0.1 M phosphate buffer (Boston Bioproducts) where the pH ranged from 2.0-12.0. Fluorescence intensity was measured using excitation and emission wavelengths of 321 nm and 448 nm.
Consider the following compounds; for each one, report its pKa.
Give bare numbers.

# compound, pKa
records = [
    ("CCCCC/C=C\\C/C=C\\CCCCCCCC(=O)OCC(COC(=O)CCCCN(C)C)COC(=O)CCC(OCCCCCCCC)OCCCCCCCC (stereo not shown)", 7.65),
    ("CCCCC/C=C\\C/C=C\\CCCCCCCC(=O)OCC(COC(=O)CCC(OCCCCCCCC)OCCCCCCCC)COC(=O)NC(C)CN(CC)CC (stereo not shown)", 6.1),
    ("CCCCCCCCOC(CCC(=O)OCC(COC(=O)CCCCCCCCCCC(=O)OCCCCCCC)COC(=O)OCCCN(CC)CC)OCCCCCCCC (stereo not shown)", 6.29),
    ("CCCCC/C=C\\C/C=C\\CCCCCCCC(=O)OCC(COC(=O)CCC(OCCCCCCCC)OCCCCCCCC)COC(=O)NCCN(C)CC (stereo not shown)", 7.39),
    ("CCCCC/C=C\\C/C=C\\CCCCCCCC(=O)OCC(COCCCN(CC)CC)COC(=O)CCC(OCCCCCCCC)OCCCCCCCC (stereo not shown)", 7.1),
    ("CCCCCC/C=C\\COC(=O)CCCCCC(=O)OCC(COC(=O)CCC(OCCCCCCCC)OCCCCCCCC)COC(=O)OCCCN(CC)CC (stereo not shown)", 6.84),
    ("CCCCC/C=C\\C/C=C\\CCCCCCCC(=O)OCC(COC(=O)CC(CCCCCCCC)CCCCCCCC)COC(=O)OCCCN(CC)CC (stereo not shown)", 6.06),
    ("CCCCCCCCCC(C)OC(=O)CCCCCCCC(=O)OCC(COC(=O)CCC(OCCCCCCCC)OCCCCCCCC)COC(=O)OCCCN(CC)CC (stereo not shown)", 6.14),
    ("CCCCC/C=C\\C/C=C\\CCCCCCCC(=O)OCC(COC(=O)CCC(OCCCCCCCC)OCCCCCCCC)COC(=O)NCC1CCCCN1CC (stereo not shown)", 7.17),
]

Please look at the following compound next.
Record CCCCC/C=C\C/C=C\CCCCCCCC(=O)OCC(C)(COC(=O)CCC(OCCCCCCCC)OCCCCCCCC)COC(=O)OCCCN(CC)CC (stereo not shown) . Reported pKa: 5.76
